Numbers sourced from patent US20250163047A1.

biological target: Cbl-b (aa36-427) (Homo sapiens); construct: Cbl-b (aa36-427, in-house); made in house; assay: Co-expressed Cbl-b with BirA biochemical assay (CBLB/E2-Ub binding, HTRF); details: 0.6 nM Cbl-b co-expressed with BirA, HTRF; read-out: co-express CBLB/E2-Ub-binding assay IC50
Sequence (Q13191 36-427): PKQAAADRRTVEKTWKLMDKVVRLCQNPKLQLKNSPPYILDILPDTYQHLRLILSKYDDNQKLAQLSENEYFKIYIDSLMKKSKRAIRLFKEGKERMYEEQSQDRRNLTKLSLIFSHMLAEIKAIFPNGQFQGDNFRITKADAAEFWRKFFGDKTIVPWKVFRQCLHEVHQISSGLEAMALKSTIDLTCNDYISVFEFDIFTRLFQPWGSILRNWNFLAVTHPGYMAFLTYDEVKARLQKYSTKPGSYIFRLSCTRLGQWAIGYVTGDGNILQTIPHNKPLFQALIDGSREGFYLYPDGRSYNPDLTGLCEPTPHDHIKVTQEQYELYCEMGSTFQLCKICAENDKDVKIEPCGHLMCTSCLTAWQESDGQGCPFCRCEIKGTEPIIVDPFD
Would you mind telling me the reported pIC50 of each entry?
Recall that pIC50 is obtained by taking minus log10 of the concentration measured in molar.

Ask | Please give the measured pIC50 for this molecule: Cc1c[nH]c2c(CNCC(C)C)cc(C(=O)Nc3cncc([C@]4(c5nncn5C)C[C@@H](C)C4)c3)nc12
Reply | 8.66

Ask | Also C[C@H](NCc1cc(C(=O)Nc2cccc([C@]3(c4nncn4C)C[C@@H](C)C3)c2)nc2c1CCC2(F)F)C1CC1 , if possible.
Reply | 8.96

Ask | Let us now turn to C[C@H](NCc1cc(C(=O)Nc2cccc([C@]3(c4nncn4C)C[C@@H](CC#N)C3)c2)c2nccn2c1)C1CC1
Reply | 8.85

Ask | # repeat for Cn1cnnc1[C@]1(c2cccc(NC(=O)c3cc(CNCC4CCC(F)(F)C4)c4c(n3)C(C)(C)CC4)c2)C[C@H](CC#N)C1 (some centres unmarked)
Reply | 8.77

Ask | Try C[C@H](NCc1cc(C(=O)Nc2cccc([C@]3(c4nncn4C)C[C@@H](CC#N)C3)c2)c2nccn2c1)C1CCCC1 next.
Reply | 9.15

Ask | Another molecule to check: Cn1cnnc1[C@]1(c2cccc(NC(=O)c3cc(CNCC4CCC4)cn4c(Cl)cnc34)c2)C[C@H](C)C1
Reply | 9.22

Ask | Try the molecule Cn1cnnc1[C@]1(c2cncc(NC(=O)c3cc(CNC4(C)CCC4)c4[nH]cc(F)c4n3)c2)C[C@H](C)C1
Reply | 8.49

Ask | Another molecule to look at: C[C@H](NCc1cc(C(=O)Nc2cccc([C@]3(c4nncn4C)C[C@@H](CC#N)C3)c2)nc2c1CCC2(F)F)C1CC1
Reply | 8.89

Ask | Next molecule: C[C@H](NCc1cc(C(=O)Nc2cccc([C@]3(c4nncn4C)C[C@@H](CC#N)C3)c2)nc2cc[nH]c12)C1CCC1
Reply | 9.10

Ask | // query: Cn1cnnc1[C@]1(c2cccc(NC(=O)c3cc(CNC4(C)CC4)c4[nH]ccc4n3)c2)C[C@H](CC#N)C1
Reply | 8.89

Ask | Likewise for Cn1cnnc1C[C@]1(c2cccc(NC(=O)c3cc(CNCC4(C)CCCC4)cn4ccnc34)c2)C[C@H](C#N)C1 ?
Reply | 8.54

Ask | Can you check Cn1cnnc1[C@]1(c2cccc(NC(=O)c3cc(CNC4(C)CC4)cn4ncnc34)c2)C[C@H](CC#N)C1 next?
Reply | 8.77

Ask | What about Cn1cnnc1[C@]1(c2cccc(NC(=O)c3cc(CNC4(C)CCC4)cn4c(F)cnc34)c2)C[C@H](C)C1 ?
Reply | 8.74

Ask | Same question, CC(C)CNCc1cc(C(=O)Nc2cncc([C@]3(c4nncn4C)C[C@@H](C)C3)c2)c2nccn2c1 this time
Reply | 8.92

* * *

Molecular target: Cbl (aa49-434) (Homo sapiens, UniProt P22681)
Construct: Cbl (aa49-434, in-house); made in house
Sequence (P22681 49-434): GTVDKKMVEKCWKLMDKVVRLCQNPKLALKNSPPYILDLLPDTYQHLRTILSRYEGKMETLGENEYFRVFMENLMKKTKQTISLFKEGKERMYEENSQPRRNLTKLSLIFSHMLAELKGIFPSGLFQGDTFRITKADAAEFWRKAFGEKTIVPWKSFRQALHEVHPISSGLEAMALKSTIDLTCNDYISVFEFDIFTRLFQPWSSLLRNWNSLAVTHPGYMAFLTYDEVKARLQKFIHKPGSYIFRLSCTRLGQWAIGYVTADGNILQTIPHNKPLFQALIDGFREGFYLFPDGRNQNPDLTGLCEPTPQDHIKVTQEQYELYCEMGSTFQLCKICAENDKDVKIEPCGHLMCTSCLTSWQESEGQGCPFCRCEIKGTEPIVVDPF
Assay: Co-expressed Cbl with BirA biochemical assay (CBL/E2-Ub binding, HTRF)
Conditions: 0.6 nM Cbl co-expressed with BirA, read-out: co-express CBL/E2-Ub-binding assay IC50
Label Met when IC50 < 2 nM; otherwise Not met.

Ask | Does C[C@H]1CCCN(Cc2cc(C(=O)Nc3cccc([C@]4(Cc5nncn5C)C[C@@H](C#N)C4)c3)nc3c2OCC3(C)C)C1 have IC50 strictly under 2 nM?
Reply | Met

Ask | Also check C[C@H]1CCCN(Cc2cc(C(=O)Nc3cccc([C@]4(c5nncn5C)C[C@@H](CC#N)C4)c3)nc3c2OCC3(C)C)C1
Reply | Not met

Ask | Try this compound next: C[C@H](NCc1cc(C(=O)Nc2cncc([C@]3(c4nncn4C)C[C@@H](C)C3)c2)nc2cc[nH]c12)C1CCC1
Reply | Met

Ask | Okay, and Cn1cnnc1[C@]1(c2cccc(NC(=O)c3cc(CNC4(C)CCC4)c4c(n3)C(F)(F)CC4)c2)C[C@H](CC#N)C1 ?
Reply | Not met

Ask | Record: Cn1cnnc1[C@]1(c2cncc(NC(=O)c3cc(CNCC4CCC4)c4ccsc4n3)c2)C[C@H](C)C1
Reply | Met

Ask | Same again, this time with C[C@H]1CCCN(Cc2cc(C(=O)Nc3cccc(C4(Cc5nncn5C)COC4)c3)nn3cccc23)C1
Reply | Not met

Ask | Try this compound too: C[C@H]1CCCN(Cc2cc(C(=O)Nc3cccc(C4(c5nncn5C)CC(CC#N)C4)c3)nc3c2CCC3(C)C)C1 (stereo partly shown)
Reply | Not met
